Tested Target: Serotonin 3 (5-HT3) receptor
Measurement Protocol: Binding affinity to 5-HT3 serotonin receptor in NG 108-15 neuroblastoma glioma cells using [3H]GR-65630 radioligand.
Parameter Measured: pKi
One number for each entry, as −log10 of the molar value.

Here's what some known entries look like.
>>> observed_result("COc1ccc(NC(=N)N)cc1OC")
5.57
>>> observed_result("NC(N)=Nc1ccc2ccccc2c1")
7.74
>>> observed_result("N=C(N)Nc1cc(Cl)c(Cl)c(Cl)c1")
9.15
>>> observed_result("N=C(N)Nc1ccc2c(c1)OCO2")
6.56
>>> observed_result("COc1ccc(NC(=N)N)cc1")
6.00
>>> observed_result("CN(C(=N)N)c1cccc(Cl)c1")
5.21
>>> observed_result("N=C(N)N=C(N)Nc1ccc2ccccc2c1")
7.85
>>> observed_result("N=C(N)NC(=N)Nc1ccc(Cl)c(Cl)c1")
7.92
>>> observed_result("N=C(N)Nc1ccc(Cl)c(Cl)c1")
8.51
>>> observed_result("C/N=C(\\N)Nc1cccc(Cl)c1")
6.35

Parameters: items (list). Returns: pKi for each item.
1. N=C(N)Nc1ccc(Cl)c(C(F)(F)F)c1
2. N=C(N)NC(=N)Nc1cc(Cl)c(Cl)c(Cl)c1
3. N=C(N)NC(=N)Nc1ccc(Cl)cc1 [4-CHLOROPHENYLBIGUANIDE]
4. N=C(N)Nc1cc(Cl)cc(Cl)c1

Outgoing:
7.44
8.57
6.68
8.30

Batch of 4 compounds: report pKi for each.
1. N=C(N)Nc1ccc(C(F)(F)F)cc1
2. Cc1ccc(NC(=N)N)cc1
3. N=C(N)N=C(N)Nc1cc(Cl)cc(Cl)c1
4. N=C(N)NC(=N)Nc1cccc(Cl)c1

Outgoing:
[6.64, 6.35, 8.74, 7.74]

// batch mode: one pKi value per listed entry
1. NC(N)=Nc1cccc(C(F)(F)F)c1
2. N=C(N)Nc1ccc(Cl)cc1
3. NC(N)=Nc1cccc(Cl)c1
4. Cc1ccc(NC(=N)N=C(N)N)cc1

Outgoing:
1. 5.61
2. 6.49
3. 7.49
4. 6.05
